target: human IL-21R expressed on cells (human, UniProt Q9HBE5 20-538); assay: cell-based or functional assay
Sequence (Q9HBE5 20-538 limits assumed): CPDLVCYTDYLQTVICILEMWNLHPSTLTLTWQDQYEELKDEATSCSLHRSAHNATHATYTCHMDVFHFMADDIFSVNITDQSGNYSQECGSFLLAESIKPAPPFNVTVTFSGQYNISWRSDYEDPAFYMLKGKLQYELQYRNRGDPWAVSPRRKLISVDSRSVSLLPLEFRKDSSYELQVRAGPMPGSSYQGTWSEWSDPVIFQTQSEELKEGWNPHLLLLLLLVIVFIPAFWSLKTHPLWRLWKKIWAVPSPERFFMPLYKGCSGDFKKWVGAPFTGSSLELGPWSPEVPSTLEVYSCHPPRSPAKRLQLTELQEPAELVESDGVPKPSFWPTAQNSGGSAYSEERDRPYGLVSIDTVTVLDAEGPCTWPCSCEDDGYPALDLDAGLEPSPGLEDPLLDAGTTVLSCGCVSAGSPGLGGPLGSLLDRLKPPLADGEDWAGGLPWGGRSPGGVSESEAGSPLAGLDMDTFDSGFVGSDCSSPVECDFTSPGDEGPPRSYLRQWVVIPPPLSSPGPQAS
Record form. Attribute: Human IL-21R-BaF3 Proliferation IC50. Fill in for each entry.
Just the number in pM, nothing appended.

Reported Human IL-21R-BaF3 Proliferation IC50 of AbJ (antibody, human IgG1, V domains shown, Full-length human IgG1 / human lambda, transient, conditioned medium; Framework limits derived; also called VH3/VLP) VH: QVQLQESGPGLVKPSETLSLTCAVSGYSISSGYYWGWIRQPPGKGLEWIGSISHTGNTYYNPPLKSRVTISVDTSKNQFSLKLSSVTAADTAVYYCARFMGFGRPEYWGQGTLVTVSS VL: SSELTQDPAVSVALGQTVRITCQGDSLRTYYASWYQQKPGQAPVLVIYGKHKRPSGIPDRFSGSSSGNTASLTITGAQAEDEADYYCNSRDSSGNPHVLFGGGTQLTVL : 650

Reported Human IL-21R-BaF3 Proliferation IC50 of AbM (antibody, human IgG1, V domains shown, Full-length human IgG1 / human lambda, transient, conditioned medium; Framework limits derived; also called VH6/VL13) VH: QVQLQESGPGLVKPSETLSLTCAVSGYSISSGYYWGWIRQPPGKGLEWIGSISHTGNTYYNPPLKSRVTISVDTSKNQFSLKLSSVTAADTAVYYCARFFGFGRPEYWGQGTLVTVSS VL: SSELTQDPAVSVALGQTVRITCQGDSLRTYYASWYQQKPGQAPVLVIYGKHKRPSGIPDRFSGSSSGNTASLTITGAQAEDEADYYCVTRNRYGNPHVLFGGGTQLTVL : 1080

Reported Human IL-21R-BaF3 Proliferation IC50 of AbR (antibody, human IgG1, V domains shown, Purified form: human IgG1 double-mutant (L234A, G237A); Framework limits derived; also called VH3/VL18; VH3DM/VL18) VH: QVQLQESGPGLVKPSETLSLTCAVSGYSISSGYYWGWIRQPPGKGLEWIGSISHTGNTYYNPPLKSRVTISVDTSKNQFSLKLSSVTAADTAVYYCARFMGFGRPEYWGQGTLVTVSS VL: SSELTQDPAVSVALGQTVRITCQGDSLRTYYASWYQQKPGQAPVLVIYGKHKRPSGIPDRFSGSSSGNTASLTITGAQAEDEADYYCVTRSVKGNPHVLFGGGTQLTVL : 870
